# Assay System: biotinylated labeled human GPC3 protein (produced in-house) (human, UniProt P51654 25-559, limits assumed, biotinylated (Dojindo, Cat. No. LK03); sites not stated)
# Procedure Summary: ELISA, biotinylated human GPC3 protein
Record rule met whenever OD450 at 0.02 nM is at 0.5 OD450 or higher; record rule not met when lower.

Below are worked cases with known answers.
| Binder | Assigned Label |
| --- | --- |
| hAb006LH2L1a (antibody, human IgG1, V domains shown, Humanized F3.38.7; VH H2 + VL L1a; expressed as human IgG1) VH: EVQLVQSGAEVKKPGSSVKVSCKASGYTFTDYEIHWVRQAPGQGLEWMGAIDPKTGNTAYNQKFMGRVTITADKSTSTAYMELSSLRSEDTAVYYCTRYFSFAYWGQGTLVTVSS VL: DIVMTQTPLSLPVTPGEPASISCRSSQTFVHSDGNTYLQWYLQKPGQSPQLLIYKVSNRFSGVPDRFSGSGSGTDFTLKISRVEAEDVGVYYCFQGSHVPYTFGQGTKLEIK | rule not met |
| hAb003LH1L1a (antibody, human IgG1, V domains shown, Humanized F2.154.1; VH H1 + VL L1a; expressed as human IgG1) VH: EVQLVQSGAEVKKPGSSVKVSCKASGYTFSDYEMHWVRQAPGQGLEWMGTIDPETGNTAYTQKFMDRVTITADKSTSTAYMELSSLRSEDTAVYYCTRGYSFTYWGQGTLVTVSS VL: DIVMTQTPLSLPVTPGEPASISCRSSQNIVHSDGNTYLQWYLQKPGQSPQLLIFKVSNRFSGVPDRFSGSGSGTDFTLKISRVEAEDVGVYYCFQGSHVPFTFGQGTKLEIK | rule not met |
| hAb006LH2L1b (antibody, human IgG1, V domains shown, Humanized F3.38.7; VH H2 + VL L1b; expressed as human IgG1) VH: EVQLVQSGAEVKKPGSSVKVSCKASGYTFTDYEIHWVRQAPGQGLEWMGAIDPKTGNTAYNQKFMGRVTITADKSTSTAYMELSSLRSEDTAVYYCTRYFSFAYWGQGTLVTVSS VL: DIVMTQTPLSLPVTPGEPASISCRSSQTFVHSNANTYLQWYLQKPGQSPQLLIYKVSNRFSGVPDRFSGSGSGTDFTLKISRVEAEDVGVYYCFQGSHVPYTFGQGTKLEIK | rule met |

Lookup: Is it the case that hAb003LH1L1b (antibody, human IgG1, V domains shown, Humanized F2.154.1; VH H1 + VL L1b; expressed as human IgG1) VH: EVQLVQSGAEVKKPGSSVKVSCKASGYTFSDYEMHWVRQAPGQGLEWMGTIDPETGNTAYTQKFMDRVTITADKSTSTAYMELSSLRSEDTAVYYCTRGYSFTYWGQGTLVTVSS VL: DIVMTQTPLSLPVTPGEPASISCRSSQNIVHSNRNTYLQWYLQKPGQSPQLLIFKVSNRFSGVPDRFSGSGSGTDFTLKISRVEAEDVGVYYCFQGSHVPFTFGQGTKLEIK has OD450 at 0.02 nM reaching or exceeding 0.5 OD450?
Found: rule met

Lookup: Another binder to check: hAb001H2L1b (antibody, human IgG1, V domains shown, Humanized F2.169.2; VH H2 + VL L1b; expressed as human IgG1) VH: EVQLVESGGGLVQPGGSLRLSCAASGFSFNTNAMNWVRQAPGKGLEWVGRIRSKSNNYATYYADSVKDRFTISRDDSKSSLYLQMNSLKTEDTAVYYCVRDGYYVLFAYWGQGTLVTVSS VL: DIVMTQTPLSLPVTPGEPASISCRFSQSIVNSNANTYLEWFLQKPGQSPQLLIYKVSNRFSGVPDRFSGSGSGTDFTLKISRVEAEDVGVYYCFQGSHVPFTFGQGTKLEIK
Found: rule met
